# Test system: chondrocytes isolated from the cartilage of New Zealand white rabbits
# Protocol: cells
# Format: cell-based
# Assay context: Oryctolagus cuniculus, Chondrocyte, 96 h, read-out: IC50 values for apigenin on chondrocytes
Measured metric: IC50

query: Let me know recorded IC50 for O=c1cc(-c2ccc(O)cc2)oc2cc(O)cc(O)c12 [apigenin, 4′,5,7-trihydroxyflavone] , thanks.
result: ~40 µM

###

# Tested on: chondrocytes isolated from the cartilage of New Zealand white rabbits
# Protocol: cells
# Format: cell-based
# Assay context: Oryctolagus cuniculus, Chondrocyte, 144 h, read-out: IC50 values for apigenin on chondrocytes
# Procedure: During culturing, on Days 1, 2, 4 and 6, IC50 values were measured by a MTT assay based on cell viability.
Measured metric: IC50

query: Return IC50 (reported value) for this compound: O=c1cc(-c2ccc(O)cc2)oc2cc(O)cc(O)c12 [apigenin, 4′,5,7-trihydroxyflavone]
result: ~30 µM
